Cited source: ChEMBL document CHEMBL1139336

- Assay method text: Cmax in Sprague-Dawley rat at 10 mg/kg, po
- Type: ADME, organism-based
- Set-up: dose 10 mg/kg, route oral
- Experimental parameters: in vivo
The entries below come with measured Cmax values attached.
Provide only the numeric value, understood in ng/mL.

{"Structure smiles": "Cn1nc(C(C)(C)C)cc1NC(=O)C(C)(C)S(=O)(=O)c1ccc(Cl)cc1", "Units label": "ng/mL", "Cmax": 971}

Lab note: next compound to report on.
QUERY: Quote Cmax reported for "CC(C)(C(=O)Nc1ccc(Cl)c(C(F)(F)F)c1)S(=O)(=O)c1ccc(Cl)cc1" please.
RESULT: 560

* * *

- Subject of test: Cannabinoid receptor 2 (Homo sapiens, UniProt P34972)
- Sequence (P34972 whole entry): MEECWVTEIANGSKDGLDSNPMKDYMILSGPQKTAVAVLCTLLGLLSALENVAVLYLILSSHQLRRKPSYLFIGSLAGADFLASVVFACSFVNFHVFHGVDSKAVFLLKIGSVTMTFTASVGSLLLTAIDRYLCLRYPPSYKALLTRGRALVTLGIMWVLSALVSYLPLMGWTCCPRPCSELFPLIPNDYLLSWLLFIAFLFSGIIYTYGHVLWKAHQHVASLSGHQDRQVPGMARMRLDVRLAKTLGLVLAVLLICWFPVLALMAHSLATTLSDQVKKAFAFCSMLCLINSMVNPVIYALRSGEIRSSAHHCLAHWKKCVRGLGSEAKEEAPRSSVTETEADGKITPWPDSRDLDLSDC
- Assay method text: Agonist activity at human CB2 receptor expressed in SF9 cells assessed as inhibition of CP-55940-stimulated GTP binding relative to control
Parameter: Emax (%)
Provide only the numeric value, understood in %.

{"Structure smiles": "CC(C)(C(=O)Nc1ccc(Cl)c(C(F)(F)F)c1)S(=O)(=O)c1ccc(Cl)cc1", "Units label": "%", "Emax": 102}
{"Structure smiles": "CC(C)(C(=O)Nc1ccc(C(F)(F)F)cc1)S(=O)(=O)c1ccc(Cl)cc1", "Units label": "%", "Emax": 77}
{"Structure smiles": "Cc1cnc(NC(=O)C(C)(C)S(=O)(=O)c2ccc(Cl)cc2)s1", "Units label": "%", "Emax": 4}

QUERY: Quote Emax reported for "Cc1cc(NC(=O)C(C)(C)S(=O)(=O)c2ccc(Cl)cc2)no1" please.
RESULT: 19

QUERY: Quote Emax reported for "CC(C)(C(=O)Nc1cccc(C(F)(F)F)c1)S(=O)(=O)c1ccc(Cl)cc1" please.
RESULT: 89

QUERY: Quote Emax reported for "Cc1ccccc1-c1nnc(NC(=O)C(C)(C)S(=O)(=O)c2ccc(Cl)cc2)s1" please.
RESULT: 81

QUERY: Quote Emax reported for "CC(C)(C(=O)Nc1ccc(Cl)c(Br)c1)S(=O)(=O)c1ccc(Cl)cc1" please.
RESULT: 77

QUERY: Quote Emax reported for "CC(C)(C(=O)Nc1cnc2ccccc2c1)S(=O)(=O)c1ccc(Cl)cc1" please.
RESULT: 90

QUERY: Quote Emax reported for "CC(C)(C(=O)Nc1cnc2ccccc2c1)S(=O)(=O)c1ccc(C(F)(F)F)cc1Cl" please.
RESULT: 94

QUERY: Quote Emax reported for "COc1ccc(S(=O)(=O)C(C)(C)C(=O)Nc2cnc3ccccc3c2)c(Cl)c1" please.
RESULT: 91

QUERY: Quote Emax reported for "Cc1ccc(-c2cncc(NC(=O)C(C)(C)S(=O)(=O)c3ccc(Cl)cc3)c2)s1" please.
RESULT: 102

QUERY: Quote Emax reported for "CC(C)(C(=O)Nc1ccc(Cl)cc1C#N)S(=O)(=O)c1ccc(Cl)cc1" please.
RESULT: 14

* * *

- Subject of test: Cannabinoid receptor 2 (Homo sapiens, UniProt P34972)
- Assay method text: Agonist activity at human CB2 receptor expressed in SF9 cells assessed as inhibition of CP-55940-stimulated GTP binding
The entries below come with measured EC50 values attached.
Provide only the numeric value, understood in nM.

Please review the entries below; each comes with its answer.
{"Molecule": "CC(C)(C)c1cc(NC(=O)C(C)(C)S(=O)(=O)c2ccc(Cl)cc2)no1", "Units label": "nM", "Reported": 29}
{"Molecule": "CC(C)(C(=O)Nc1cccc(C(F)(F)F)c1)S(=O)(=O)c1ccc(Cl)cc1", "Units label": "nM", "Reported": 170}
{"Molecule": "CC(C)(C(=O)Nc1cnc2ccccc2c1)S(=O)(=O)c1ccc(C(F)(F)F)cc1Cl", "Units label": "nM", "Reported": 19}
{"Molecule": "Cn1nc(C(C)(C)C)cc1NC(=O)C(C)(C)S(=O)(=O)c1ccc(Cl)cc1", "Units label": "nM", "Reported": 26}
{"Molecule": "CC(C)(C(=O)Nc1ccc(Cl)c(C(F)(F)F)c1)S(=O)(=O)c1ccc(Cl)cc1", "Units label": "nM", "Reported": 20}
{"Molecule": "COc1ccc(S(=O)(=O)C(C)(C)C(=O)Nc2cnc3ccccc3c2)c(Cl)c1", "Units label": "nM", "Reported": 148}

QUERY: Quote EC50 reported for "CC(C)(C(=O)Nc1cnc2ccccc2c1)S(=O)(=O)c1ccc(F)cc1Cl" please.
RESULT: 104

QUERY: Quote EC50 reported for "CC(C)(C(=O)NCc1ccc(F)c(Cl)c1)S(=O)(=O)c1ccc(Cl)cc1" please.
RESULT: 1300

QUERY: Quote EC50 reported for CC1(c2nnc(NC(=O)C(C)(C)S(=O)(=O)c3ccc(Cl)cc3)s2)CCOC1 (configuration not stated) please.
RESULT: 216

* * *

The entries below come with measured pEC50 values attached.
- Subject of test: Cannabinoid receptor 1 (Homo sapiens, UniProt P21554)
- Sequence (P21554 whole entry): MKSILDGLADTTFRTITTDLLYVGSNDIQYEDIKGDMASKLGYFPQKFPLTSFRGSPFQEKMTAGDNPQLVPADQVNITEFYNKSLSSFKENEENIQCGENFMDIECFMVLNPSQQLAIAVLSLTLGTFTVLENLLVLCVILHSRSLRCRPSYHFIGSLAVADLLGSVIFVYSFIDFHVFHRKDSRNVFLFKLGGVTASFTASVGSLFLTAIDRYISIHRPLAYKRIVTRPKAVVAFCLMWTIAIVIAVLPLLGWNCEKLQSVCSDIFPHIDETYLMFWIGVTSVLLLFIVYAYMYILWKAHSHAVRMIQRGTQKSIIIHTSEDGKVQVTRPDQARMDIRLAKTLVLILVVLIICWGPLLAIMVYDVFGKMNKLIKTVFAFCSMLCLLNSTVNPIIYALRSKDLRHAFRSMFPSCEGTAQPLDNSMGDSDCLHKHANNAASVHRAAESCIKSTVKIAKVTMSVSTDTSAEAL
- Assay method text: Agonist activity at human CB1 receptor expressed in CHO cells assessed as suppression of forskolin-stimulated cAMP accumulation
- Assay type: functional, cell-based
pEC50: −log10 of the molar value.

{"Structure smiles": "CC(C)(C(=O)Nc1ccc(C(F)(F)F)cc1)S(=O)(=O)c1ccc(Cl)cc1", "pEC50": "< 6.00"}
{"Structure smiles": "Cn1nc(C(C)(C)C)cc1NC(=O)C(C)(C)S(=O)(=O)c1ccc(Cl)cc1", "pEC50": "< 5.70"}
{"Structure smiles": "CC(C)(C(=O)Nc1cnc2ccccc2c1)S(=O)(=O)c1ccc(F)cc1", "pEC50": "< 5.70"}
{"Structure smiles": "CC(C)(C(=O)Nc1ccc(Cl)c(C(F)(F)F)c1)S(=O)(=O)c1ccc(Cl)cc1", "pEC50": "< 5.70"}
{"Structure smiles": "Cc1ccc(-c2cncc(NC(=O)C(C)(C)S(=O)(=O)c3ccc(Cl)cc3)c2)s1", "pEC50": 6.48}

QUERY: Quote pEC50 reported for "CC(C)(C(=O)Nc1cccc(C(F)(F)F)c1)S(=O)(=O)c1ccc(Cl)cc1" please.
RESULT: < 6.00

QUERY: Quote pEC50 reported for "CC(C)(C(=O)Nc1cnc2ccccc2c1)S(=O)(=O)c1ccc(C(F)(F)F)cc1Cl" please.
RESULT: < 5.70

QUERY: Quote pEC50 reported for "CC(C)(C)c1cc(NC(=O)C(C)(C)S(=O)(=O)c2ccc(Cl)cc2)no1" please.
RESULT: < 5.70

QUERY: Quote pEC50 reported for "CC(C)(C(=O)Nc1cnc2ccccc2c1)S(=O)(=O)c1ccc(C(F)(F)F)cc1" please.
RESULT: 7.09

QUERY: Quote pEC50 reported for "CC(C)(C(=O)Nc1cnc2ccccc2c1)S(=O)(=O)c1ccc(Cl)cc1" please.
RESULT: < 6.00

QUERY: Quote pEC50 reported for "CC(C)(C(=O)Nc1ccc(Cl)c(-c2ccco2)c1)S(=O)(=O)c1ccc(Cl)cc1" please.
RESULT: 6.64

* * *

- Subject of test: Cannabinoid receptor 2 (Homo sapiens, UniProt P34972)
- Assay method text: Agonist activity at human CB2 receptor expressed in SF9 cells assessed as inhibition of CP-55940-stimulated GTP binding relative to control
Cut-off 90% on Emax, inclusive. At or above means condition met; below means condition not met.

{"Compound": "CC(C)(C(=O)Nc1ccc(Cl)c(-c2ccco2)c1)S(=O)(=O)c1ccc(Cl)cc1", "Label class": "condition met"}
{"Compound": "CC(C)(C(=O)Nc1cnc2ccccc2c1)S(=O)(=O)c1ccc(F)cc1", "Label class": "condition met"}
{"Compound": "CC(C)(C(=O)Nc1cnc2ccccc2c1)S(=O)(=O)c1ccc(F)cc1Cl", "Label class": "condition met"}
{"Compound": "CC(C)(C(=O)NCc1ccc(F)c(Cl)c1)S(=O)(=O)c1ccc(Cl)cc1", "Label class": "condition not met"}
{"Compound": "CC(C)(C)c1cc(NC(=O)C(C)(C)S(=O)(=O)c2ccc(Cl)cc2)no1", "Label class": "condition met"}
{"Compound": "CC(C)(C(=O)NCc1ccccc1)S(=O)(=O)c1ccc(Cl)cc1", "Label class": "condition not met"}
{"Compound": "CC(C)(C(=O)Nc1ccc(Cl)cc1OC(F)(F)F)S(=O)(=O)c1ccc(Cl)cc1", "Label class": "condition not met"}
{"Compound": "Cn1nc(C(C)(C)C)cc1NC(=O)C(C)(C)S(=O)(=O)c1ccc(Cl)cc1", "Label class": "condition met"}

QUERY: Decide: is the reported value of Emax for CC1(c2nnc(NC(=O)C(C)(C)S(=O)(=O)c3ccc(Cl)cc3)s2)CCOC1 (stereo not given) equal to or greater than 90%?
RESULT: condition met

* * *

- Subject of test: Cannabinoid receptor 1 (Homo sapiens)
- Assay method text: Agonist activity at human CB1 receptor expressed in SF9 cells assessed as inhibition of CP-55940-stimulated GTP binding
Parameter: pEC50
Scale for pEC50: -log10 of concentration given in mol/L; no unit attached.

Please review the entries below; each comes with its answer.
{"Structure smiles": "Cc1ccc(-c2cncc(NC(=O)C(C)(C)S(=O)(=O)c3ccc(Cl)cc3)c2)s1", "Reported": 6.49}
{"Structure smiles": "CC(C)(C(=O)Nc1cnc2ccccc2c1)S(=O)(=O)c1ccc(C(F)(F)F)cc1", "Reported": 6.15}

QUERY: Report pEC50 under test system Cannabinoid receptor 1 (Homo sapiens) for "Cc1ccccc1-c1nnc(NC(=O)C(C)(C)S(=O)(=O)c2ccc(Cl)cc2)s1" .
RESULT: 5.78
